Molecular target: rat TRPV-1 receptor (Rattus norvegicus, UniProt O35433)
Construct: expressed in transfected cells; host or cells: HEK-293T
Sequence (O35433 whole entry): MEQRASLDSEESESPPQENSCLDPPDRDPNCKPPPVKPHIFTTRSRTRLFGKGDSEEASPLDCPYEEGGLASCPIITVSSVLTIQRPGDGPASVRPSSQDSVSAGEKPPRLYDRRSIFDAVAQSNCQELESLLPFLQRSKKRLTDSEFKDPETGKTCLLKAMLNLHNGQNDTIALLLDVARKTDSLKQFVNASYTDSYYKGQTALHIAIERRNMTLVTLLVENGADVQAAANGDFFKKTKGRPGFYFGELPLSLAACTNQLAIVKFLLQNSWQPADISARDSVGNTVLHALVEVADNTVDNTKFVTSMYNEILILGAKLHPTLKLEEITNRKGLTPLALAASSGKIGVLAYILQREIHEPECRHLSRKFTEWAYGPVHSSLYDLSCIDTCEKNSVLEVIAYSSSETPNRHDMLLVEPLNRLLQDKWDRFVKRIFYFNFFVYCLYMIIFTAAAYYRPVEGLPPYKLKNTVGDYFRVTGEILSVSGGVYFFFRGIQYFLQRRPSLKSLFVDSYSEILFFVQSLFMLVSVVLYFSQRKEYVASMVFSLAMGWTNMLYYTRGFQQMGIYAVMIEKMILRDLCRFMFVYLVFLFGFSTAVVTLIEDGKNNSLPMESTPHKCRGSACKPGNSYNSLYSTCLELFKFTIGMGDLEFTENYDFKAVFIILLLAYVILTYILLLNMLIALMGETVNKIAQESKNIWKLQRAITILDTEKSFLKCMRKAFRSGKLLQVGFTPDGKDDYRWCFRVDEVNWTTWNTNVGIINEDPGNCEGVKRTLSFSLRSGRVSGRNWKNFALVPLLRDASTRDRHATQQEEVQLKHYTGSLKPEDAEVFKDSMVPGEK
Experiment: Dose response curve, temperature activation of the TRPV-1 receptor in transfected HEK-293T cells
Type: cell-based
Settings: 1,3,4-thiadiazole alkylamide derivatives, relative fluorescence at 50° C., HEK-293T cells transfected with rat TRPV-1, two independent experiments, ± standard deviation
Reported Metric: log10(IC50) (log10 of the value in nM)
All values: base-10 log of IC50 in nM.

Worked examples follow.
| Smiles Notation | log10(IC50) |
| --- | --- |
| CCCCCC(=O)Nc1nnc(-c2ccc(O)c(OC)c2)s1 | -0.53 |
| CCCCCCCCC(=O)Nc1nnc(-c2cc(I)c(O)c(OC)c2)s1 | -1.34 |
| CCCCCCCCC(=O)Nc1nnc(-c2ccc(O)c(OC)c2)s1 | -0.84 |
| CCCCCCC(=O)Nc1nnc(-c2cc(I)c(O)c(OC)c2)s1 | 0.10 |

Q) Report log10(IC50) for CCCCCCCC(=O)Nc1nnc(-c2ccc(O)c(OC)c2)s1 please.
A) 0.04

Source of measurements: patent US20160039778A1
